system: Klebsiella pneumoniae; experiment: Bactericidal activity against Klebsiella pneumoniae after 24 hrs by broth dilution method; type: functional
Measured MIC accompanies every entry in the list below.
Numbers only; they are read as µg.

Query (compound): O=C(N[C@H](CO)[C@H](O)c1ccc([N+](=O)[O-])cc1)C(Cl)Cl [CHLORAMPHENICOL] ; field requested: MIC
12.5

What value of MIC has been reported for the following compound? O=C(/C=C/c1ccccc1)Nc1nc(-c2ccc(Cl)cc2)c[nH]1
25

What does the data say about its MIC? Entry: O=C(Nc1nc(-c2ccc(Cl)cc2)c[nH]1)c1n[nH]cc1-c1ccccc1
50

Param item = O=C(Nc1nc(-c2ccc(Cl)cc2)c[nH]1)c1c[nH]cc1-c1ccccc1 ; retrieve measured MIC.
100

###

Listing of recorded zone of inhibition at 100 µg/disc by entry.
tested on: Bacillus subtilis; assay: Antibacterial activity against Bacillus subtilis at 100 ug after 24 hrs by agar well diffusion method; type: functional; conditions: read-out: DIZ
Please state the figure in mm; there is no need to write the unit.

Before answering, review these 5 worked examples.
>>> numericreadout("O=C(Nc1nc(-c2ccc(Cl)cc2)co1)c1n[nH]cc1-c1ccccc1")
22
>>> numericreadout("O=C(Nc1nc(-c2ccccc2)co1)c1c[nH]cc1-c1ccccc1")
15
>>> numericreadout("O=C(Nc1nc(-c2ccc(Cl)cc2)co1)c1c[nH]cc1-c1ccccc1")
21
>>> numericreadout("O=C(/C=C/c1ccccc1)Nc1nc(-c2ccc(Cl)cc2)co1")
24
>>> numericreadout("Cc1ccc(-c2csc(NC(=O)/C=C/c3ccccc3)n2)cc1")
25

# input for lookup
Given the compound O=C(Nc1nc(-c2ccccc2)cs1)C1=NNCC1c1ccccc1 (stereo unspecified) , what is its reported zone of inhibition at 100 µg/disc?
16

###

test system: Klebsiella pneumoniae; experiment: Antibacterial activity against Klebsiella pneumoniae at 50 ug after 24 hrs by agar well diffusion method; assay type: functional
Activity calls are given as the source filed them. The rule behind the calls is not given here.
reportedEndpoint: diameter of the inhibition zone (DIZ)

Solved cases (7 shown):
>>> result("O=C(Nc1nc(-c2ccccc2)cs1)C1=NNCC1c1ccccc1 (stereo not drawn)")
"inactive"
>>> result("Cc1ccc(-c2coc(NC(=O)c3n[nH]cc3-c3ccccc3)n2)cc1")
"inactive"
>>> result("Cc1ccc(-c2coc(NC(=O)C3=NNCC3c3ccccc3)n2)cc1 (stereo not drawn)")
"inactive"
>>> result("O=C(/C=C/c1ccccc1)Nc1nc(-c2ccccc2)co1")
"inactive"
>>> result("O=C(Nc1nc(-c2ccccc2)co1)C1=NNCC1c1ccccc1 (stereo not drawn)")
"inactive"
>>> result("Cc1ccc(-c2coc(NC(=O)/C=C/c3ccccc3)n2)cc1")
"inactive"
>>> result("Cc1ccc(-c2coc(NC(=O)c3c[nH]cc3-c3ccccc3)n2)cc1")
"inactive"

Kindly consider the entry below.
diameter of the inhibition zone (DIZ) for O=C(Nc1nc(-c2ccccc2)co1)c1c[nH]cc1-c1ccccc1 ?
inactive

###

tested on: Klebsiella pneumoniae; assay: Antibacterial activity against Klebsiella pneumoniae at 100 ug after 24 hrs by agar well diffusion method; assay type: functional; details: read-out: DIZ
reportedEndpoint: zone of inhibition at 100 µg/disc (mm)
# value in mm; strip the unit string

>>> numericreadout("O=C(Nc1nc(-c2ccc(Cl)cc2)cs1)c1c[nH]cc1-c1ccccc1")
30
>>> numericreadout("Cc1ccc(-c2csc(NC(=O)c3n[nH]cc3-c3ccccc3)n2)cc1")
15
>>> numericreadout("O=C(/C=C/c1ccccc1)Nc1nc(-c2ccccc2)c[nH]1")
26
>>> numericreadout("O=C(Nc1nc(-c2ccccc2)cs1)c1n[nH]cc1-c1ccccc1")
16
>>> numericreadout("O=C(Nc1nc(-c2ccc(Cl)cc2)cs1)C1=NNCC1c1ccccc1 (stereo unspecified)")
28

From here, focus on the item given below.
Look up zone of inhibition at 100 µg/disc: O=C(Nc1nc(-c2ccc(Cl)cc2)co1)c1c[nH]cc1-c1ccccc1
25
